The reported measurements were obtained from ChEMBL document CHEMBL5257037.

Biological target: Angiotensin-converting enzyme (Rattus norvegicus) (UniProt P47820)
Sequence (P47820 whole entry): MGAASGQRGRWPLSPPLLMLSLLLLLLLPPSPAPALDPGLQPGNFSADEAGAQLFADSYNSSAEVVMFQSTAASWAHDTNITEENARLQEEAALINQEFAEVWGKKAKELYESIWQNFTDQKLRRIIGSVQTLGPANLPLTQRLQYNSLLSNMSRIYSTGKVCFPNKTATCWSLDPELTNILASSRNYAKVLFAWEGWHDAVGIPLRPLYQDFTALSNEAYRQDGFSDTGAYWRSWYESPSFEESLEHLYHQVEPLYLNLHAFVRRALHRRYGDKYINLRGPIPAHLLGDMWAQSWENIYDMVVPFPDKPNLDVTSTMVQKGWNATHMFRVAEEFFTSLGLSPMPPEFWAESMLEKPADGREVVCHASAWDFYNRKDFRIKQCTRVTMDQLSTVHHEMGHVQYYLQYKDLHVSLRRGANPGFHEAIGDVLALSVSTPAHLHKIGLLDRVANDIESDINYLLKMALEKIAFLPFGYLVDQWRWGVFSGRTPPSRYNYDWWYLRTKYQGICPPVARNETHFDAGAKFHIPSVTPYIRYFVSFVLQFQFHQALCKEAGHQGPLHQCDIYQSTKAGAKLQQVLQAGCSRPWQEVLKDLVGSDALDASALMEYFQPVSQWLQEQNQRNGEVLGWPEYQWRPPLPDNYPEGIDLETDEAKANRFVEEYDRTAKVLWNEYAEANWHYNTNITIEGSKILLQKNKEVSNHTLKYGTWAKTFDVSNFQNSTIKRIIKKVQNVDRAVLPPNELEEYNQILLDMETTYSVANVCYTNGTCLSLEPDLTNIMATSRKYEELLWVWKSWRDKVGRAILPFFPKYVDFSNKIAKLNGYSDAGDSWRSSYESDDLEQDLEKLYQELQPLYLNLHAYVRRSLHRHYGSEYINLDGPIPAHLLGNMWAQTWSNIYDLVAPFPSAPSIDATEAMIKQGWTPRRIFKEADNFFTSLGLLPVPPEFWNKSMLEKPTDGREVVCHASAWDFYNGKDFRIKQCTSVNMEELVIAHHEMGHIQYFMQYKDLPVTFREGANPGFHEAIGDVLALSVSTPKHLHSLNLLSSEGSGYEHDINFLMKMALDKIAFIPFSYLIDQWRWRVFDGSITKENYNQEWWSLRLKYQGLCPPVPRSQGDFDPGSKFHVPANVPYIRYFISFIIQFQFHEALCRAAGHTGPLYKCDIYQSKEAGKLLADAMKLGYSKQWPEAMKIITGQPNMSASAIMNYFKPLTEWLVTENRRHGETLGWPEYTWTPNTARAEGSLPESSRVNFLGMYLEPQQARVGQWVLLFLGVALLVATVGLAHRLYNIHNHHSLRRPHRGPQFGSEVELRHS
Assay: In vivo inhibition of ACE in iv dosed rat assessed as inhibition of Ang1 induced pressor response
Format: functional, organism-based
value-type: ED50 (µmol/kg)

Solved entries (count: 2):
O=C(O)CN1C(=O)[C@@H](NC(=O)[C@@H](S)Cc2ccccc2)CCc2ccccc21: 0.02
C[C@H](NC(=O)[C@@H](CS)Cc1ccccc1)C(=O)N1Cc2ccccc2C[C@H]1C(=O)O: 0.57

[1] C[C@H](NC(=O)[C@@H](CS)Cc1ccccc1)C(=O)N1CCC[C@H]1C(=O)O
[2] C[C@H](NC(=O)[C@@H](S)Cc1ccccc1)C(=O)N1CCC[C@H]1C(=O)O
[3] C[C@H](NC(=O)[C@@H](CS)Cc1ccccc1)C(=O)N1c2ccccc2C[C@H]1C(=O)O
Hey, can you sort those compounds up there by ED50, smallest first? Ranked list of labels, please, in the requested order. 2, 3, 1
